Data origin, for the record: the NTF2 design screens of Basanta et al. (2020)

Test: protease stability score; higher = more stable; yeast display proteolysis, trypsin and chymotrypsin;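 further: log10 excess protease needed over predicted unfolded state with 0 meaning unfolded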
test_readout: protease stability score
Enter a number only.

protease stability score recorded for this sequence, `ESELDKQAEQIVRVLRTGDPEKVADNAPEDAELIIGDKTYHGREQIRDWVHTVNKQMRIQWDEFDVKVKGDKAKVEADVVYDVNGTPVEDKIVLIFVIHNGRVHAVHFDFDPEVWRSMES` , is 0.569

----------
Test: protease stability score; higher = more stable; yeast display proteolysis, trypsin and chymotrypsin;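 further: log10 excess protease needed over predicted unfolded state with 0 meaning unfolded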
test_readout: protease stability score

Entry `DERVADQFVRALRTNDEEQLVRLMDEDAKMRVGEKEIHGRESVQTYLRRFAQQADHVDIHHVHIQGDKVSIDAVVEFNGKRVRFSMQFTVEGEKVKDVTIEARDEDDKRKLDEIFR` — recorded protease stability score = 1.79

Input `DEEVKSVAEQLMDVLQKGDPKQMSRLADKDVKINVGDKQYDGSEQLEKAVEDWKDEMRFQIEHVSISARGDKANVDFHVEFSFNGKPHSREVKVYIKVHNGRIKYLEYRVDPNEERKIKK` . Output protease stability score: -0.267

Please fill in: protease stability score reported for `DEEHNKEVMENIITGNSDEMRKMVDPNAQLEIGDKRYHGRDQIDTFEHLMRDRVDNLEVKRYDLQGDKVHVDYVFVVNGKHARVRVSFSVKNGRFTQIRIEVTDEEVEKILREVQK` = 1.17

get_value(item= `DHDLLTKIKTILELIKTGNFEEVRKNFDPNVDVHVGDKTIHGRERWAKELDKEVRELRWDIKIKRVKDRGDRAHFDMEATFEVNGRPANFRANMVVHMHNGRVKHMNIKIPEEDLKRQKS` , readout=protease stability score) returns 0.823

What the record says about `DETNKKAVEDYIKALETGDDEMAKRLMDKNATVEIGDKEVTGREEIHEQFKRDVKEIRVRIDRVHVKDQGDKVNLRAREKQTVNGHPISFEFQVEFHAHNGKIKHVEWQIDKDQLRKLKG` : protease stability score is 0.119
